# testTarget: glucocorticoid receptor (Rattus norvegicus)
# Construct: receptors in the cytosol of animal target organs; from tissue; host or cells: thymus cytosol of the adrenalectomized rat
# Sequence (P06536 whole entry): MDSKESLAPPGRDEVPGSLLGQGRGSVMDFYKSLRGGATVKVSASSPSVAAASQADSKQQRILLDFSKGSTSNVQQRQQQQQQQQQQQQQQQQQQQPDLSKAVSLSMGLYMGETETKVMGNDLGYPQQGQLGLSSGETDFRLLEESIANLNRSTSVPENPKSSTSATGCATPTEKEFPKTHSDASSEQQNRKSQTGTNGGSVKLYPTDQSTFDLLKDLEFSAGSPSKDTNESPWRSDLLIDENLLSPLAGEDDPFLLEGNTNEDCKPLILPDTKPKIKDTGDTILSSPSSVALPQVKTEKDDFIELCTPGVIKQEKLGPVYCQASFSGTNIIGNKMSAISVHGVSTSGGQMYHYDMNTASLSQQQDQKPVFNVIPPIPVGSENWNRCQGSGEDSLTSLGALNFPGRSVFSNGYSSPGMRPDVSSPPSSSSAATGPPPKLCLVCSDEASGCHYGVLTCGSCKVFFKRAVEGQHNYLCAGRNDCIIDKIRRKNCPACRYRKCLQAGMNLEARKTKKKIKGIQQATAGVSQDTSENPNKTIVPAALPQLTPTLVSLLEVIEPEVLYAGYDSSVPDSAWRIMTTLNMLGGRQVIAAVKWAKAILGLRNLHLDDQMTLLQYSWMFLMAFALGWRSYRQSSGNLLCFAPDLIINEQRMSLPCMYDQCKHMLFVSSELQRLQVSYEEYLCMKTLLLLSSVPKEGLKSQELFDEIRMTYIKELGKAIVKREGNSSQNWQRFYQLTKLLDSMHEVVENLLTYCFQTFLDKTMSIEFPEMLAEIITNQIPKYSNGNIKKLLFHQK
# assayName: Receptor binding affinity, glucocorticoid receptor (competitive binding, thymus cytosol)
# runConditions: Dexamethasone = 100%; thymus cytosol of adrenalectomized rat; tracer 3H-dexamethasone
Class key for Relative molar binding affinity RBA (%) to the glucocorticoid receptor values: low = under 30%, intermediate = from 30% up to 50%, high = 50% and over

[
  {
    "compound": "CC#C[C@]1(O)CC[C@H]2[C@@H]3CCC4=CC(=O)CCC4=C3[C@@H](c3ccc(N(C)C)cc3)C[C@@]21C [RU 486, mifepristone, reference compound]",
    "discreteLabel": "high"
  },
  {
    "compound": "CCSC(=O)O/N=C/c1ccc([C@H]2C[C@@]3(C)[C@@H](CC[C@]3(COC)OC)[C@@H]3CCC4=CC(=O)CCC4=C32)cc1",
    "discreteLabel": "intermediate"
  },
  {
    "compound": "CN(C)c1ccc([C@H]2C[C@]3(C)[C@@H](CC[C@]3(O)CCCO)[C@@H]3CCC4=CC(=O)CCC4=C32)cc1 [ZK 98299, onapristone, reference compound]",
    "discreteLabel": "intermediate"
  },
  {
    "compound": "CCSC(=O)ON=Cc1ccc(C2CC3(C)C(CCC3(O)CCl)C3CCC4=CC(=O)CCC4=C23)cc1 (centres unmarked)",
    "discreteLabel": "low"
  },
  {
    "compound": "CCSC(=O)OC[C@]1(O)CC[C@H]2[C@@H]3CCC4=CC(=O)CCC4=C3[C@@H](c3ccc(/C=N/OC(=O)SCC)cc3)C[C@@]21C",
    "discreteLabel": "intermediate"
  },
  {
    "compound": "COC[C@]1(OC)CC[C@H]2[C@@H]3CCC4=CC(=O)CCC4=C3[C@@H](c3ccc(/C=N/O)cc3)C[C@@]21C [J 867, reference compound]",
    "discreteLabel": "high"
  },
  {
    "compound": "CCSC(=O)O/N=C/c1ccc([C@H]2C[C@@]3(C)[C@@H](CC[C@@]3(O)CC#N)[C@@H]3CCC4=CC(=O)CCC4=C32)cc1",
    "discreteLabel": "low"
  },
  {
    "compound": "COC[C@@]1(O)CC[C@H]2[C@@H]3CCC4=CC(=O)CCC4=C3[C@@H](c3ccc(/C=N/OC(=O)SC)cc3)C[C@@]21C",
    "discreteLabel": "high"
  },
  {
    "compound": "CCSC(=O)ON=Cc1ccc(C2CC3(C)C(CCC3(O)CN=[N+]=[N-])C3CCC4=CC(=O)CCC4=C23)cc1 (centres unmarked)",
    "discreteLabel": "low"
  },
  {
    "compound": "CCSC(=O)ON=Cc1ccc(C2CC3(C)C(CCC3(O)COC)C3CCC4=CC(=O)CCC4=C23)cc1 (centres unmarked)",
    "discreteLabel": "high"
  }
]

###

# Tested on: early pregnancy in the rat
# assayName: Inhibition of early pregnancy in the rat (early abortive action)
# Assay type: in vivo
# runConditions: s.c., day 5-7 of pregnancy, 1 mg/(animal × day)

[
  {
    "molecule": "CCSC(=O)O/N=C/c1ccc([C@H]2C[C@@]3(C)[C@@H](CC[C@@]3(O)CC#N)[C@@H]3CCC4=CC(=O)CCC4=C32)cc1",
    "Complete inhibition of pregnancy % (%)": 0
  },
  {
    "molecule": "CCSC(=O)O/N=C/c1ccc([C@H]2C[C@@]3(C)[C@@H](CC[C@]3(COC)OC)[C@@H]3CCC4=CC(=O)CCC4=C32)cc1",
    "Complete inhibition of pregnancy % (%)": 0
  },
  {
    "molecule": "CC#C[C@]1(O)CC[C@H]2[C@@H]3CCC4=CC(=O)CCC4=C3[C@@H](c3ccc(N(C)C)cc3)C[C@@]21C [RU 486, mifepristone, reference compound]",
    "Complete inhibition of pregnancy % (%)": 20
  },
  {
    "molecule": "COC[C@]1(OC)CC[C@H]2[C@@H]3CCC4=CC(=O)CCC4=C3[C@@H](c3ccc(/C=N/O)cc3)C[C@@]21C [J 867, reference compound]",
    "Complete inhibition of pregnancy % (%)": 100
  }
]
